# Test system: PC-12
# TEST METHOD NOTES: Neuroprotective activity against corticosterone-induced cell injury in rat PC12 cells assessed as cell viability at 3 uM after 48 hrs by MTT assay (reference value: 55.6 +/- 0.87%)
# Assay type: functional
# RUN PARAMETERS: PC-12, 48 h, read-out: Activity
OUTCOME MEASURE: viability at 3 µM (%)

{"MOLECULE": "CNCCC(Oc1ccc(C(F)(F)F)cc1)c1ccccc1 (stereo unspecified)", "TARGET DESC": "PC-12", "UNIT": "%", "NUMERIC READOUT": 59.1}
{"MOLECULE": "CC(C)=CCC[C@]1(C)[C@@H](CC=C(C)C)C[C@]2(CC=C(C)C)C(=O)C3=C(OC(C)(C)[C@H](O)C3)[C@@]1(C(=O)C(C)C)C2=O", "TARGET DESC": "PC-12", "UNIT": "%", "NUMERIC READOUT": 91.5}
{"MOLECULE": "CC(C)=CCC[C@]1(C)[C@@H](CC=C(C)C)C[C@]23C[C@@H](C(C)(C)O)OC2=C(CC=C(C)C)C(=O)[C@@]1(C(=O)C(C)C)C3=O", "TARGET DESC": "PC-12", "UNIT": "%", "NUMERIC READOUT": 77.7}
{"MOLECULE": "CC(C)=CCC[C@]1(C)[C@@H](CC=C(C)C)C[C@@]2(CC=C(C)C)C(=O)[C@]1(C(=O)c1ccccc1)C(=O)C1=C2O[C@H](C(C)(C)O)C1", "TARGET DESC": "PC-12", "UNIT": "%", "NUMERIC READOUT": 74.4}
{"MOLECULE": "CC(C)=CCC[C@]1(C)[C@@H](CC=C(C)C)C[C@]23C[C@H](C(C)(C)O)OC2=C(CC=C(C)C)C(=O)[C@@]1(C(=O)c1ccccc1)C3=O", "TARGET DESC": "PC-12", "UNIT": "%", "NUMERIC READOUT": 78}
{"MOLECULE": "CC(C)=CCC[C@]1(C)[C@@H](CC=C(C)C)C[C@]2(CC=C(C)C)C(=O)C3=C(OC(C)(C)[C@@H](O)C3)[C@@]1(C(=O)c1ccccc1)C2=O", "TARGET DESC": "PC-12", "UNIT": "%", "NUMERIC READOUT": 69}
{"MOLECULE": "CC(C)=CCC[C@]1(C)[C@@H](CC=C(C)C)C[C@]2(C[C@H](O)C(C)(C)O)C(=O)C3=C(OC(C)(C)[C@@H](O)C3)[C@@]1(C(=O)c1ccccc1)C2=O", "TARGET DESC": "PC-12", "UNIT": "%", "NUMERIC READOUT": 72.5}
{"MOLECULE": "CC(C)=CCC[C@]1(C)[C@@H](CC=C(C)C)C[C@]2(CC=C(C)C)C(=O)C(C(=O)c3ccccc3)=C3O[C@H](C(C)(C)O)C[C@@]31C2=O", "TARGET DESC": "PC-12", "UNIT": "%", "NUMERIC READOUT": 81.1}
{"MOLECULE": "CC(C)=CCC[C@]1(C)[C@@H](CC=C(C)C)C[C@]2(CC=C(C)C)C(=O)C3=C(OC(C)(C)[C@H](O)C3)[C@@]1(C(=O)c1ccccc1)C2=O", "TARGET DESC": "PC-12", "UNIT": "%", "NUMERIC READOUT": 82.2}
{"MOLECULE": "CC(C)=CCC1=C2O[C@H](C(C)(C)O)CC[C@]3(C)[C@@H](CC=C(C)C)C[C@](CC=C(C)C)(C1=O)C(=O)[C@]23C(=O)c1ccccc1", "TARGET DESC": "PC-12", "UNIT": "%", "NUMERIC READOUT": 81.6}
{"MOLECULE": "CC(C)=CCC1=C2O[C@H](C(C)(C)O)CC[C@]3(C)[C@@H](C[C@H](O)C(C)(C)O)C[C@](CC=C(C)C)(C1=O)C(=O)[C@]23C(=O)C(C)C", "TARGET DESC": "PC-12", "UNIT": "%", "NUMERIC READOUT": 90.7}
